- Study system: PDE10 (Homo sapiens (Human))
- Sequence (Q9Y233 whole entry): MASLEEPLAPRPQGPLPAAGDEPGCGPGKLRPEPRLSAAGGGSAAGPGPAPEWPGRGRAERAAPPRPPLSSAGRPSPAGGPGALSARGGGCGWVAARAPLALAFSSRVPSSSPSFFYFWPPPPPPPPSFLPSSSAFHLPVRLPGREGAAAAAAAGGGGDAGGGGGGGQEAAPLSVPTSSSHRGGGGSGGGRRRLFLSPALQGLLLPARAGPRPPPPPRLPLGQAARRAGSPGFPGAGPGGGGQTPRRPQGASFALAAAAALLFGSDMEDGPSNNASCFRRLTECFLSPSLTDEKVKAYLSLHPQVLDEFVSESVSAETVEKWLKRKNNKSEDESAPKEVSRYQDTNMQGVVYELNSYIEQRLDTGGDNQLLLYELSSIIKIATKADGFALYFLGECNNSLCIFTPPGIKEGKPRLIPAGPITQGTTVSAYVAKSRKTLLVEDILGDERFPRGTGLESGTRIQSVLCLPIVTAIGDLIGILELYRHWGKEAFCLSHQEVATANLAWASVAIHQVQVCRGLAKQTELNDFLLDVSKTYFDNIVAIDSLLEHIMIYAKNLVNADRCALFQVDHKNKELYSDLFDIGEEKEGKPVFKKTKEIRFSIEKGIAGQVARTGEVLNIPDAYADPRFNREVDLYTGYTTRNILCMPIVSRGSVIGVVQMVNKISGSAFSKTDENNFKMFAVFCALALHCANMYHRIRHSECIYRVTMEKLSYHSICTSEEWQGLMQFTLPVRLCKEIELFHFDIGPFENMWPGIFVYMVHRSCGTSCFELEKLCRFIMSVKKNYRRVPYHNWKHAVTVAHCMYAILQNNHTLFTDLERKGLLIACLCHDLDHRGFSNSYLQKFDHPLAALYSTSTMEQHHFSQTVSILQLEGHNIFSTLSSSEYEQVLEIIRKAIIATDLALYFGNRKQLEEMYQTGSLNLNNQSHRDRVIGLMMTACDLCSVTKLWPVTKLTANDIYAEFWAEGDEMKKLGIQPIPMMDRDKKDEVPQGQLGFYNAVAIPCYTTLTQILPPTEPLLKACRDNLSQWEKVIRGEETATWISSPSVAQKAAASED
- Experiment: LE_PDE10A inhibition assay (SPA, cAMP hydrolysis)
- Type: biochemical
- Conditions: 3H-cAMP at Km 25 nM, read-out: Range (IC50)
Reported property: IC50

Lab request: please report IC50 under test system PDE10 (Homo sapiens (Human)) for Cc1ncc(C)n2nc(C3CC3c3nc(-c4ccccc4)cn3C)nc12 (single isomer, unassigned) [drawing 16]
0.8 to 5 nM

Lab request: please report IC50 under test system PDE10 (Homo sapiens (Human)) for Cc1ncc(C)n2nc(C3CC3c3nc(-c4ccccc4)cn3C)nc12 (single isomer, unassigned) [drawing 17]
10.1 to 40 nM

Lab request: please report IC50 under test system PDE10 (Homo sapiens (Human)) for CCn1cc(-c2ccccc2)nc1C1CC1c1nc2c(C)ncc(C)n2n1 (stereo not drawn)
5.1 to 10 nM

Values were extracted from patent US8592423B2.
